Entries and their Control values follow.
System: Rattus norvegicus
method: Compound was evaluated for its ability to suppress food intake in one of two meal-fed rats after intraperitoneal administration of 32 ug/kg
Format: functional
Starred links: 1 amine or outer side, 2 acyl side, 3 side chain; linkers in the order of their positions; H or OH if unused. Non-standard residues stand in square brackets, D forms with d. Residues, ends and D or L forms follow the SMILES beside them. Phe(4-SO3H) = N[C@@H](Cc1ccc(S(=O)(=O)O)cc1)C(=O)O; 3Abz = Nc1cccc(C(=O)O)c1; CO = O=C([*:1])[*:2]; Ava = NCCCCC(=O)O
Output spec: scalar in %, unitless text.

1) CSCC[C@H](NC(=O)[C@H](Cc1ccc(S(=O)(=O)O)cc1)NC(=O)O)C(=O)NCC(=O)N[C@@H](Cc1c[nH]c2ccccc12)C(=O)N[C@@H](CCSC)C(=O)N[C@@H](CC(=O)O)C(=O)N[C@@H](Cc1ccccc1)C(N)=O ({CO}-[Phe(4-SO3H)]MGWMDF-NH2); 6
2) CSCC[C@H](NC(=O)[C@H](Cc1c[nH]c2ccccc12)NC(=O)c1cccc(NC(=O)[C@H](Cc2ccc(S(=O)(=O)O)cc2)NC(=O)O)c1)C(=O)N[C@@H](CC(=O)O)C(=O)N[C@@H](Cc1ccccc1)C(N)=O ({CO}-[Phe(4-SO3H)][3Abz]WMDF-NH2); 14

Now turn to the next compound.
Quick check: Control of CSCC[C@H](NC(=O)[C@H](Cc1c[nH]c2ccccc12)NC(=O)CCCCNC(=O)[C@H](Cc1ccc(S(=O)(=O)O)cc1)NC(=O)O)C(=O)N[C@@H](CC(=O)O)C(=O)N[C@@H](Cc1ccccc1)C(N)=O ({CO}-[Phe(4-SO3H)][Ava]WMDF-NH2) ?
54

====

studySystem: Cholecystokinin receptor type A (Rattus norvegicus)
Sequence (P30551 whole entry): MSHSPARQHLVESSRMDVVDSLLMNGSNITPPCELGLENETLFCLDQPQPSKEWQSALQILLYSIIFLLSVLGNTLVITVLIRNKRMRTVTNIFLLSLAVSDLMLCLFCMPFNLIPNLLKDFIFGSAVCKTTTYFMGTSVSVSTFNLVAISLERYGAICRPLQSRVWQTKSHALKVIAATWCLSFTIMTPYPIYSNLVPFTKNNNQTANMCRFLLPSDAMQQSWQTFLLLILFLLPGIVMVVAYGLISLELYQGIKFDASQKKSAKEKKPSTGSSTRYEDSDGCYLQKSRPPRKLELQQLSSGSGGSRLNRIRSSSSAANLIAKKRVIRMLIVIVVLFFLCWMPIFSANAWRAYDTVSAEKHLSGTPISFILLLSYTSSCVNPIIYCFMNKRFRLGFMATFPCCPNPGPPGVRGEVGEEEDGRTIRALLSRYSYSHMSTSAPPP
method: The compound was tested in vitro for inhibition of specific [3H]propionyl-CCK-8 binding to Cholecystokinin type A receptor in rat pancreatic membranes
Assay type: cell membranes, Membrane
Starred links: 1 amine or outer side, 2 acyl side, 3 side chain; linkers in the order of their positions; H or OH if unused. Non-standard residues stand in square brackets, D forms with d. Residues, ends and D or L forms follow the SMILES beside them. Phe(4-SO3H) = N[C@@H](Cc1ccc(S(=O)(=O)O)cc1)C(=O)O; X3 = O=C(C[C@@H]1CCCC[C@@H]1N[*:1])[*:2]; X5 = O=C(C[C@H]1CCCC[C@@H]1N[*:1])[*:2]; X1 = Cc1c(N[*:1])cccc1C(=O)[*:2]; X4 = Cc1ccc(N[*:1])cc1C(=O)[*:2]; 3Abz = Nc1cccc(C(=O)O)c1; 4Abz = Nc1ccc(C(=O)O)cc1; CO = O=C([*:1])[*:2]
valueKind: pIC50
For clarity, pIC50 is expressed as the negative log10 of concentration in mol/L.

1. CSCC[C@H](NC(=O)[C@H](Cc1c[nH]c2ccccc12)NC(=O)C[C@H]1CCCC[C@@H]1NC(=O)[C@H](Cc1ccc(S(=O)(=O)O)cc1)NC(=O)O)C(=O)N[C@@H](CC(=O)O)C(=O)N[C@@H](Cc1ccccc1)C(N)=O ({CO}-[Phe(4-SO3H)][X5]WMDF-NH2); 6.78
2. CSCC[C@H](NC(=O)[C@H](Cc1c[nH]c2ccccc12)NC(=O)c1cccc(NC(=O)[C@H](Cc2ccc(S(=O)(=O)O)cc2)NC(=O)O)c1)C(=O)N[C@@H](CC(=O)O)C(=O)N[C@@H](Cc1ccccc1)C(N)=O ({CO}-[Phe(4-SO3H)][3Abz]WMDF-NH2); 8.68
3. CSCC[C@H](NC(=O)[C@H](Cc1c[nH]c2ccccc12)NC(=O)c1ccc(NC(=O)[C@H](Cc2ccc(S(=O)(=O)O)cc2)NC(=O)O)cc1)C(=O)N[C@@H](CC(=O)O)C(=O)N[C@@H](Cc1ccccc1)C(N)=O ({CO}-[Phe(4-SO3H)][4Abz]WMDF-NH2); 5.80
4. CSCC[C@H](NC(=O)[C@H](Cc1c[nH]c2ccccc12)NC(=O)c1cccc(NC(=O)[C@H](Cc2ccc(S(=O)(=O)O)cc2)NC(=O)O)c1C)C(=O)N[C@@H](CC(=O)O)C(=O)N[C@@H](Cc1ccccc1)C(N)=O ({CO}-[Phe(4-SO3H)][X1]WMDF-NH2); 8.57
5. CSCC[C@H](NC(=O)[C@H](Cc1c[nH]c2ccccc12)NC(=O)C[C@@H]1CCCC[C@@H]1NC(=O)[C@H](Cc1ccc(S(=O)(=O)O)cc1)NC(=O)O)C(=O)N[C@@H](CC(=O)O)C(=O)N[C@@H](Cc1ccccc1)C(N)=O ({CO}-[Phe(4-SO3H)][X3]WMDF-NH2); 6.79

Now turn to the next compound.
Quick check: pIC50 of CSCC[C@H](NC(=O)[C@H](Cc1c[nH]c2ccccc12)NC(=O)c1cc(NC(=O)[C@H](Cc2ccc(S(=O)(=O)O)cc2)NC(=O)O)ccc1C)C(=O)N[C@@H](CC(=O)O)C(=O)N[C@@H](Cc1ccccc1)C(N)=O ({CO}-[Phe(4-SO3H)][X4]WMDF-NH2) ?
7.14

====

Entries and their Control values follow.
Tested on: Rattus norvegicus
method: Compound was evaluated for its ability to suppress food intake in one of two meal-fed rats after intraperitoneal administration of 32 ug/kg
Type: functional
Starred links: 1 amine or outer side, 2 acyl side, 3 side chain; linkers in the order of their positions; H or OH if unused. Non-standard residues stand in square brackets, D forms with d. Residues, ends and D or L forms follow the SMILES beside them. Phe(4-SO3H) = N[C@@H](Cc1ccc(S(=O)(=O)O)cc1)C(=O)O; X1 = Cc1c(N[*:1])cccc1C(=O)[*:2]; CO = O=C([*:1])[*:2]

1. CSCC[C@H](NC(=O)[C@H](Cc1c[nH]c2ccccc12)NC(=O)c1cccc(NC(=O)[C@H](Cc2ccc(S(=O)(=O)O)cc2)NC(=O)O)c1C)C(=O)N[C@@H](CC(=O)O)C(=O)N[C@@H](Cc1ccccc1)C(N)=O ({CO}-[Phe(4-SO3H)][X1]WMDF-NH2); 44%

Now turn to the next compound.
Quick check: Control of CSCC[C@H](NC(=O)[C@H](Cc1c[nH]c2ccccc12)NC(=O)CNC(=O)[C@H](Cc1ccc(S(=O)(=O)O)cc1)NC(=O)O)C(=O)N[C@@H](CC(=O)O)C(=O)N[C@@H](Cc1ccccc1)C(N)=O ({CO}-[Phe(4-SO3H)]GWMDF-NH2) ?
69%

====

studySystem: Gastrin/cholecystokinin type B receptor (Bos taurus, UniProt P79266)
Sequence (P79266 whole entry): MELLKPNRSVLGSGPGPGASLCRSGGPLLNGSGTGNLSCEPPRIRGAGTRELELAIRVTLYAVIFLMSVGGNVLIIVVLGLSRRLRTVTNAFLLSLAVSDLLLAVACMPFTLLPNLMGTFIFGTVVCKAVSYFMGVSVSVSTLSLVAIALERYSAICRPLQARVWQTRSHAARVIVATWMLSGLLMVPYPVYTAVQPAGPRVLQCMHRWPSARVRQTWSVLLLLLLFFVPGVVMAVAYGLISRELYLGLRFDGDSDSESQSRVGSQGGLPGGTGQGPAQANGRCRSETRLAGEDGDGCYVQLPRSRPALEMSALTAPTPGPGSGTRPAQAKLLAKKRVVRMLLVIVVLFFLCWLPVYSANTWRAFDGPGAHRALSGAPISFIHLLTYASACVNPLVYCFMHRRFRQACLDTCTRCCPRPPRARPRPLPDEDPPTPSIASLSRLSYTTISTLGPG
method: Inhibition of [3H]propionyl-CCK-8 binding to Cholecystokinin type B receptor in bovine striatum
Type: tissue-based
Starred links: 1 amine or outer side, 2 acyl side, 3 side chain; linkers in the order of their positions; H or OH if unused. Non-standard residues stand in square brackets, D forms with d. Residues, ends and D or L forms follow the SMILES beside them. Phe(4-SO3H) = N[C@@H](Cc1ccc(S(=O)(=O)O)cc1)C(=O)O; X1 = Cc1c(N[*:1])cccc1C(=O)[*:2]; 3Abz = Nc1cccc(C(=O)O)c1; CO = O=C([*:1])[*:2]; βAla = NCCC(=O)O
Entries and their pIC50 values follow.
For clarity, pIC50 is expressed as the negative log10 of concentration in mol/L.

Here are 3 molecules together with their reported answers.
1. CSCC[C@H](NC(=O)[C@H](Cc1c[nH]c2ccccc12)NC(=O)c1cccc(NC(=O)[C@H](Cc2ccc(S(=O)(=O)O)cc2)NC(=O)O)c1C)C(=O)N[C@@H](CC(=O)O)C(=O)N[C@@H](Cc1ccccc1)C(N)=O ({CO}-[Phe(4-SO3H)][X1]WMDF-NH2); 9.04
2. CSCC[C@H](NC(=O)[C@H](Cc1c[nH]c2ccccc12)NC(=O)CNC(=O)[C@H](Cc1ccc(S(=O)(=O)O)cc1)NC(=O)O)C(=O)N[C@@H](CC(=O)O)C(=O)N[C@@H](Cc1ccccc1)C(N)=O ({CO}-[Phe(4-SO3H)]GWMDF-NH2); 5.89
3. CSCC[C@H](NC(=O)[C@H](Cc1c[nH]c2ccccc12)NC(=O)c1cccc(NC(=O)[C@H](Cc2ccc(S(=O)(=O)O)cc2)NC(=O)O)c1)C(=O)N[C@@H](CC(=O)O)C(=O)N[C@@H](Cc1ccccc1)C(N)=O ({CO}-[Phe(4-SO3H)][3Abz]WMDF-NH2); 9.32

Quick check: pIC50 of CSCC[C@H](NC(=O)[C@H](Cc1c[nH]c2ccccc12)NC(=O)CCNC(=O)[C@H](Cc1ccc(S(=O)(=O)O)cc1)NC(=O)O)C(=O)N[C@@H](CC(=O)O)C(=O)N[C@@H](Cc1ccccc1)C(N)=O ({CO}-[Phe(4-SO3H)][βAla]WMDF-NH2) ?
5.44
